# TARGET_OR_SYSTEM: HLA-A*02:01 (Homo sapiens, UniProt P04439, D140Y/D185E/D98H/E176V/E277Q/G131W/G231S/I119V/I121R/I166T/I218V/L300P/L318F/N151K/N90K/P208A/P217A/Q86G/Q94H/R138H/R169H/T345S)
# ASSAY_COMMENT: MHC binding assay (UV-ligand exchange, anti-β2m ELISA)
# SETUP_CONDITIONS: peptide exchange yield, binding to HLA-A*02:01
MEASURED_PROPERTY: Peptide exchange

• 35 (SLRDGTEVV; peptide displayed by HLA-A*02) [compound 35] = +++ (≥50% = +++)
• 25 (FMNDRSFIL; peptide displayed by HLA-A*02) [compound 25] = ++++ (≥75% = ++++)
• 20 (SLFAYPLPDV; peptide displayed by HLA-A*02) [compound 20] = ++++ (≥75% = ++++)
• 87 (NMYDLTFHV; peptide displayed by HLA-A*02) [compound 87] = ++++ (≥75% = ++++)
• 33 (ILFDLTHRV; peptide displayed by HLA-A*02) [compound 33] = ++++ (≥75% = ++++)
• 84 (KMLDETVLV; peptide displayed by HLA-A*02) [compound 84] = +++ (≥50% = +++)
• 8 (KLAPDLTEL; peptide displayed by HLA-A*02) [compound 8] = +++ (≥50% = +++)
• 37 (AIDDTAARL; peptide displayed by HLA-A*02) [compound 37] = +++ (≥50% = +++)
• 39 (AVFDQTVTVI; peptide displayed by HLA-A*02) [compound 39] = +++ (≥50% = +++)

Each recorded value in this set is attributed to patent US11969464B2.
